- Assay details: PAMPA (parallel artificial membrane permeability assay)
- Format: in vitro ADME
- Test context: PAMPA; membrane permeation rate (Pe); 50 mM MOPSO buffer pH 6.5 with 5.0% glycocholic acid, 37° C., 18 hours; read-out: iPAMPA Pe
Starred links: 1 amine or outer side, 2 acyl side, 3 side chain; linkers in the order of their positions; H or OH if unused. Positions of bridges follow the written chain, without caps; N, C: chain ends. Non-standard residues stand in square brackets, D forms with d. Residues, ends and D or L forms follow the SMILES beside them. *: point of attachment. NMeF = CN[C@@H](Cc1ccccc1)C(=O)O; NMeGABA = CN(CCCC(=O)[*:2])[*:1]; NMeI = CC[C@H](C)[C@H](NC)C(=O)O; NMeβAla = CN(CCC(=O)[*:2])[*:1]; NMeL = CN[C@@H](CC(C)C)C(=O)O; NMeV = CN[C@H](C(=O)O)C(C)C; NMeA = CN[C@@H](C)C(=O)O; Piperidide = C1CCN(*)CC1; dNMeA = CN[C@H](C)C(=O)O; β3hA = C[C@H](N)CC(=O)O; Sar = CNCC(=O)O; tBu = CC(C)(C)*
Decide using Papp at 18 hours, 50 µM alone. Strictly below 50 ×10⁻⁶ cm/s: rule met. Equal to or above 50 ×10⁻⁶ cm/s: rule not met.

Here are 5 molecules together with their reported answers.
# Molecule, Class
data = [
    ("CC[C@H](C)[C@H]1C(=O)N[C@@H](C)CC(=O)N(C)[C@H](C)C(=O)N(C)[C@@H](CC(C)C)C(=O)N[C@@H]([C@@H](C)O)C(=O)N(C)CC(=O)N[C@@H](COC(C)(C)C)C(=O)N(C)[C@@H](CC(C)C)C(=O)N1C [DP-826] (cyclo([NMeI][β3hA][dNMeA][NMeL]T[Sar]S(tBu)[NMeL]))", "rule met"),
    ("CC(C)C[C@@H]1NC(=O)[C@@H](C)N(C)C(=O)C[C@@H](C(=O)N2CCCCC2)NC(=O)[C@H](CC(C)C)N(C)C(=O)[C@H](Cc2ccccc2)N(C)C(=O)[C@H](CC(C)C)NC(=O)[C@H](Cc2ccccc2)N(C)C(=O)[C@H](C)N(C)C(=O)[C@H]([C@@H](C)O)NC1=O [DP-127] ([dNMeA]LT[NMeA][NMeF]L[NMeF][NMeL]D-Piperidide; lactam N-9)", "rule met"),
    ("CC(C)[C@@H]1NC(=O)[C@H](C)N(C)C(=O)[C@H](C(C)C)N(C)C(=O)CCN(C)C(=O)C[C@@H](C(=O)N(C)[C@@H](Cc2ccccc2)C(=O)N(C)[C@@H](Cc2ccccc2)C(=O)N[C@@H](C)C(=O)N2CCCCC2)NC(=O)[C@H](C)N(C)C(=O)[C@H](C)N(C)C(=O)[C@H]([C@@H](C)O)NC(=O)[C@H](C)N(C)C(=O)[C@H](Cc2ccccc2)N(C)C1=O [DP-450] ([NMeβAla][NMeV][NMeA]V[NMeF][NMeA]T[NMeA][NMeA]D[NMeF][NMeF]A-Piperidide; lactam N-10)", "rule met"),
    ("CC[C@H](C)[C@@H]1NC(=O)[C@H](CC(C)C)N(C)C(=O)[C@H](Cc2ccccc2)N(C)C(=O)[C@H](CC(C)C)NC(=O)[C@@H](C)NC(=O)C[C@@H](C(=O)N2CCCCC2)NC(=O)[C@H](C)N(C)C(=O)[C@H](C)N(C)C(=O)CN(C)C(=O)[C@H]([C@@H](C)O)NC(=O)[C@H](Cc2ccccc2)N(C)C(=O)[C@H](C(C)C)N(C)C1=O [DP-131] ([dA]L[NMeF][NMeL]I[NMeV][NMeF]T[Sar][NMeA][NMeA]D-Piperidide; lactam N-12)", "rule not met"),
    ("CC[C@H](C)[C@H]1C(=O)N(C)[C@@H](C)C(=O)N[C@@H](COC(C)(C)C)C(=O)N(C)[C@@H](CC(C)C)C(=O)N(C)[C@@H](CC(C)C)C(=O)N[C@H](C(=O)N2CCCCC2)CC(=O)N(C)[C@H](C)C(=O)N(C)[C@@H](Cc2ccccc2)C(=O)N[C@@H](C)C(=O)N(C)[C@@H](CC(C)C)C(=O)N[C@@H]([C@@H](C)O)C(=O)N[C@@H](Cc2ccccc2)C(=O)N1C [DP-63] ([dNMeA][NMeF]A[NMeL]TF[NMeI][NMeA]S(tBu)[NMeL][NMeL]D-Piperidide; lactam N-12)", "rule met"),
]

# next molecule below
Ask: Lab note: Papp at 18 hours, 50 µM threshold 50 ×10⁻⁶ cm/s. Does this molecule come in strictly under it? CC[C@H](C)[C@H]1C(=O)N[C@H](C(=O)N2CCCCC2)CC(=O)N(C)CCCC(=O)N(C)[C@@H](CC(C)C)C(=O)N[C@@H](C)C(=O)N(C)[C@@H](CC(C)C)C(=O)N(C)[C@@H](Cc2ccccc2)C(=O)N(C)[C@@H](CC(C)C)C(=O)N[C@@H]([C@@H](C)O)C(=O)N(C)[C@@H](C)C(=O)N(C)[C@@H](Cc2ccccc2)C(=O)N1C [DP-251] ([NMeGABA][NMeL]A[NMeL][NMeF][NMeL]T[NMeA][NMeF][NMeI]D-Piperidide; lactam N-11)
Reply: rule met

----------
- Assay details: Metabolic stability in human hepatic microsome
- Assay type: in vitro ADME
- Test context: human, microsomes, pH 7.4, CL NADPH(+)
Starred links: 1 amine or outer side, 2 acyl side, 3 side chain; linkers in the order of their positions; H or OH if unused. Positions of bridges follow the written chain, without caps; N, C: chain ends. Non-standard residues stand in square brackets, D forms with d. Residues, ends and D or L forms follow the SMILES beside them. ξ: configuration not given here. *: point of attachment. Phe(4-CF3) = N[C@@H](Cc1ccc(C(F)(F)F)cc1)C(=O)O; NMeF = CN[C@@H](Cc1ccccc1)C(=O)O; NMeI = CC[C@H](C)[C@H](NC)C(=O)O; NMeβAla = CN(CCC(=O)[*:2])[*:1]; NMeL = CN[C@@H](CC(C)C)C(=O)O; NMeV = CN[C@H](C(=O)O)C(C)C; NMeA = CN[C@@H](C)C(=O)O; Piperidide = C1CCN(*)CC1; dNMeA = CN[C@H](C)C(=O)O; β3hA = C[C@H](N)CC(=O)O; ξD = NC(CC(=O)O)C(=O)O; ξT = CC(O)C(N)C(=O)O; Sar = CNCC(=O)O; tBu = CC(C)(C)*
Listing of entries alongside the reported microsomal CLint at 1 uM.
Answer format reminder: number followed by unit.

The cases that follow already have their microsomal CLint at 1 uM on record.
# Compound, microsomal CLint at 1 uM
data = [
    ("CC(C)C[C@H]1C(=O)N(C)[C@@H](CC(C)C)C(=O)NC(C(C)O)C(=O)N(C)[C@@H](Cc2ccccc2)C(=O)NCC(=O)N(C)[C@@H](C(C)C)C(=O)N[C@@H](Cc2ccccc2)C(=O)NC(C(=O)N2CCCCC2)CC(=O)N(C)CCC(=O)N[C@@H](COC(C)(C)C)C(=O)N1C (stereo partly shown) [DP-50] ([NMeβAla]S(tBu)[NMeL][NMeL][ξT][NMeF]G[NMeV]F[ξD]-Piperidide; lactam N-10)", "80 µL/min/mg"),
    ("CC(C)C[C@@H]1NC(=O)[C@H](C)N(C)C(=O)CNC(=O)[C@H](C(C)C)N(C)C(=O)[C@H](Cc2ccccc2)NC(=O)[C@H]([C@@H](C)O)NC(=O)[C@H](CC(C)C)N(C)C(=O)CN(C)C(=O)C[C@@H](C(=O)N(C)[C@@H](Cc2ccccc2)C(=O)N[C@@H](C)C(=O)N2CCCCC2)NC(=O)[C@H](C)N(C)C(=O)[C@H](CC(C)C)N(C)C1=O [DP-285] ([Sar][NMeL]TF[NMeV]G[NMeA]L[NMeL][NMeA]D[NMeF]A-Piperidide; lactam N-11)", "69 µL/min/mg"),
    ("CC[C@H](C)[C@H](NC(=O)[C@H](CC(C)C)N(C)C(=O)[C@@H]1CC(=O)N[C@@H](C)C(=O)N[C@@H](Cc2ccccc2)C(=O)N2CCC[C@H]2C(=O)N[C@@H](CC(C)C)C(=O)N[C@@H]([C@@H](C)O)C(=O)N[C@@H](CC(C)C)C(=O)N[C@@H](Cc2ccccc2)C(=O)N(C)[C@@H](C(C)C)C(=O)N[C@@H](C)C(=O)N1)C(=O)N1CCCCC1 [DP-43] (AFPLTLF[NMeV]AD[NMeL]I-Piperidide; lactam N-10)", "44 µL/min/mg"),
    ("CC[C@H](C)[C@H]1C(=O)N[C@H](C(=O)N2CCCCC2)CC(=O)N(C)[C@H](C)C(=O)N[C@@H](CC(C)C)C(=O)N(C)[C@@H](Cc2ccccc2)C(=O)N(C)[C@@H](CC(C)C)C(=O)NCC(=O)N(C)[C@@H](C(C)C)C(=O)N(C)[C@@H](Cc2ccccc2)C(=O)N(C)[C@@H](C)C(=O)N[C@@H]([C@@H](C)O)C(=O)N(C)[C@@H](C)C(=O)N1C [DP-94] ([dNMeA]L[NMeF][NMeL]G[NMeV][NMeF][NMeA]T[NMeA][NMeI]D-Piperidide; lactam N-12)", "17 µL/min/mg"),
    ("CC[C@H](C)[C@@H]1NC(=O)[C@H](C)NC(=O)C[C@H](C)NC(=O)[C@H](CC(C)C)NC(=O)[C@H](CC(C)C)NC(=O)[C@H](C(C)C)NC(=O)[C@H](C)N(C)C(=O)[C@H](Cc2ccc(C(F)(F)F)cc2)NC(=O)CNC(=O)[C@H]([C@@H](C)O)NC(=O)[C@H](CC(C)C)N(C)C(=O)[C@@H]2CCCN2C1=O [DP-807] (cyclo(AIP[NMeL]TG[Phe(4-CF3)][NMeA]VLL[β3hA]))", "81 µL/min/mg"),
]

Briefly, microsomal CLint at 1 uM measured for CC[C@H](C)[C@@H]1NC(=O)[C@H](C)N(C)C(=O)[C@H]([C@@H](C)O)NC(=O)[C@H](C(C)C)N(C)C(=O)[C@H](CC(C)C)NC(=O)[C@H](CC(C)C)N(C)C(=O)[C@@H](C)N(C)C(=O)C[C@H](C)NC(=O)[C@H](Cc2ccccc2)NC(=O)[C@H](C)NC(=O)[C@H](Cc2ccccc2)N(C)C1=O [DP-769] (cyclo(AF[β3hA][dNMeA][NMeL]L[NMeV]T[NMeA]I[NMeF])) : 78 µL/min/mg

Short answer for CC(C)C[C@H]1C(=O)N(C)[C@@H](Cc2ccccc2)C(=O)N(C)[C@@H](C)C(=O)N[C@@H](Cc2ccccc2)C(=O)N[C@H](C(=O)N(C)[C@@H](Cc2ccccc2)C(=O)N[C@@H](C)C(=O)N2CCCCC2)CC(=O)N(C)CC(=O)N[C@@H]([C@@H](C)O)C(=O)N(C)CC(=O)N[C@@H](C(C)C)C(=O)N1C [DP-316] ([Sar]T[Sar]V[NMeL][NMeF][NMeA]FD[NMeF]A-Piperidide; lactam N-9) : microsomal CLint at 1 uM was 35 µL/min/mg
